- method.notes: DAPI mCherry counterscreen qHTS for Zika virus inhibitors; also: nearly all actives have a fitted effect of over 55% in size; also: potency is read from the fitted curve at half-maximal effect
- details: Vero cells, DAPI nuclear count cytotoxicity, imaging 48-72 h, infected with Zika reporter virus, MOI 1; series mostly up to 32.6 µM
Inconclusive results are not listed. Calls of active or inactive are those of the source. Calls follow the shape of the dose curve; as a rule, active = well fitted cell-killing curve with a large enough effect; inconclusive = small, poorly fitted or top-dose-only effect; inactive = flat fitted curve, though single readings scatter.
measurement.name: Potency

Worked set:
compound: O=c1oc2ccccc2cc1-c1nnc(Nc2ccc(Cl)cc2Cl)s1
measurement.name: Potency
assay.result: inactive
//
compound: CC(=O)Oc1cc2c(c(C)c1OC(C)=O)CC=C1[C@@]2(C)CC[C@@]2(C)[C@H]3C[C@](C)(C(=O)O)CC[C@]3(C)CC[C@]12C
measurement.name: Potency
assay.result: 2.82 µM (active)
//
compound: CCOc1ccc(-c2ccc(Cn3c(CC(C)(C)C(=O)O)c(SC(C)(C)C)c4cc(OCc5ccc(C)cn5)ccc43)cc2)cn1
measurement.name: Potency
assay.result: 17.8 µM (active)
//
compound: O=C(O)c1c(Br)c(Br)c(Br)c(Br)c1C1c2ccc(O)cc2Oc2cc(O)ccc21
measurement.name: Potency
assay.result: 20 µM (active)
//
compound: O=C(O)c1ccc(NC(=O)c2cn(-c3ccccc3)nc2-c2ccc(Br)cc2)cc1
measurement.name: Potency
assay.result: 35.5 µM (active)
//
compound: CN(C)[C@@H]1C(=O)C(C(N)=O)=C(O)[C@@]2(O)C(=O)C3=C(O)c4c(O)cccc4C[C@H]3C[C@@H]12
measurement.name: Potency
assay.result: inactive
//
compound: CC(=O)N1c2ccc(-c3ccc(C(=O)O)cc3)cc2C(Nc2ccc(Cl)cc2)CC1C (stereo not drawn)
measurement.name: Potency
assay.result: 1 µM (active)
//
compound: O=c1c(O)c(-c2ccc(O)cc2O)oc2cc(O)cc(O)c12
measurement.name: Potency
assay.result: inactive
//
compound: O=c1c(O)c(Br)ccc2c(Br)c(O)c(O)c(O)c12
measurement.name: Potency
assay.result: inactive
//
compound: O=C(O)c1ccc(C2Nc3ccccc3-c3nnc(SCc4ccc(Cl)cc4)nc3O2)cc1 (stereo not drawn)
measurement.name: Potency
assay.result: inactive

Lookup: Consider the compound `CC(C)C[C@H](C(=O)O)c1cc(-c2ccc(C(F)(F)F)cc2)cc(-c2ccc(C(F)(F)F)cc2)c1` and give its recorded Potency.
Found: 11.2 µM (active)

Lookup: Consider the compound `O=C(O)Cn1nnc(-c2ccc(OCc3cccc(C(F)(F)F)c3)cc2)n1` and give its recorded Potency.
Found: inactive

Lookup: Consider the compound `Cc1cc(N2CCOCC2)cc2[nH]c(-c3c(NC[C@@H](O)c4cccc(Cl)c4)cc[nH]c3=O)nc12` and give its recorded Potency.
Found: 12.6 µM (active)

Lookup: Consider the compound `Cc1cc(C)cc(C(=O)N(C)[C@H](Cc2ccc(-c3ccccc3)cc2)C(=O)N[C@@H](Cc2c[nH]c3ccccc23)C(=O)O)c1` and give its recorded Potency.
Found: 8.91 µM (active)

Lookup: Consider the compound `CC(C)(C)Sc1c(CC(C)(C)C(=O)O)n(Cc2ccc(Cl)cc2)c2ccc(OCc3ccc4ccccc4n3)cc12` and give its recorded Potency.
Found: 35.5 µM (active)

Lookup: Consider the compound `Oc1c(Cl)cc(Cl)cc1Sc1cc(Cl)cc(Cl)c1O` and give its recorded Potency.
Found: inactive

Lookup: Consider the compound O=C(O)COc1ccccc1C1Nc2ccccc2-c2nnc(SCc3ccc(Cl)cc3)nc2O1 (stereo not drawn) and give its recorded Potency.
Found: inactive

Lookup: Consider the compound `O=C(Nc1ccccc1)c1ccc2c(O)c(S(=O)(=O)c3ccc(Cl)cc3)c(=O)[nH]c2c1` and give its recorded Potency.
Found: inactive
